Data origin, for the record: patent US4948880A

- System: mouse L1210 leukemia cells
- assay notes: Formation of L1210 leukemia cell colonies in soft agar (cytostatic activity)
- Type: cell-based
- measurement context: Mus musculus, L1210, read-out: 1 h incubation IC50, 1 hour incubation with test substance at 37° C., then washed, 7 days in agar; colonies > 60 μm, % of untreated control
quantity: IC50 (µg/mL)
Response body: numeric value in µg/mL, unit text excluded.

Data point: CC[C@@]1(O)C[C@H](O[C@H]2C[C@H](NC)[C@H](O)[C@H](C)O2)c2c(O)c3c(c(O)c2[C@H]1O)C(=O)c1cccc(O)c1C3=O ; IC50 = 0.038

Data point: CC[C@@]1(O)C[C@H](O[C@H]2C[C@H](N(C)CC#N)[C@H](O)[C@H](C)O2)c2c(O)c3c(c(O)c2[C@H]1O)C(=O)c1c(O)ccc(O)c1C3=O ; IC50 = 0.2

Data point: CC[C@@]1(O)C[C@H](O[C@H]2C[C@H](N(C)C=O)[C@H](O)[C@H](C)O2)c2c(O)c3c(c(O)c2[C@H]1O)C(=O)c1cccc(O)c1C3=O ; IC50 = 0.15

Data point: CC[C@@]1(O)C[C@H](O[C@H]2C[C@H](N(C)CC#N)[C@H](O)[C@H](C)O2)c2c(O)c3c(c(O)c2[C@H]1O)C(=O)c1cccc(O)c1C3=O ; IC50 = 0.021
